- Tested on: Staphylococcus aureus
- runDescription: Potentiation of cefazolin induced antibacterial activity against methicillin resistant Staphylococcus aureus ATCC BAA-44 assessed as minimum resensitizing concentration after 18 hrs by broth microdilution method
- Format: functional
- studyConditions: ATCC BAA-44, 18 h, read-out: MEC
measuredMetric: minimal effective concentration

{"molecule": "Cn1c(N2CCc3c([nH]c4ccc(Cl)cc34)C2)nc2ccccc21", "result": "> 64 µg/mL"}
{"molecule": "Clc1ccc2[nH]c3c(c2c1)CCN(c1nc2ccccc2o1)C3", "result": "> 64 µg/mL"}
{"molecule": "Fc1ccc2[nH]c3c(c2c1)CCN(c1nc2ccc(Cl)cc2s1)C3", "result": "> 64 µg/mL"}
{"molecule": "Cc1ccc2nc(N3CCc4c([nH]c5ccc(Cl)cc45)C3)sc2c1", "result": "> 64 µg/mL"}
{"molecule": "Clc1ccc2[nH]c3c(c2c1)CCN(c1nc2cccc(Cl)c2s1)C3", "result": "1 µg/mL"}
{"molecule": "O=C(O)C1CN(c2nc3ccc(Cl)cc3s2)Cc2[nH]c3ccc(Cl)cc3c21 (racemic)", "result": "16 µg/mL"}
{"molecule": "COc1cc(Cl)c2nc(N3CCc4c([nH]c5ccc(Cl)cc45)C3)sc2c1", "result": "> 32 µg/mL"}
{"molecule": "FC(F)(F)c1cnc2nc(N3CCc4c([nH]c5ccc(Cl)cc45)C3)sc2c1", "result": "> 64 µg/mL"}
{"molecule": "N=CNCC1CN(c2nc3ccc(Cl)cc3s2)Cc2[nH]c3ccc(Cl)cc3c21 (racemic)", "result": "2 µg/mL"}
{"molecule": "CNc1cc(C(F)(F)F)c2nc(N3CCc4c([nH]c5ccc(Cl)cc45)C3)sc2c1", "result": "2 µg/mL"}
{"molecule": "Nc1cc(Cl)c2nc(N3CCc4c([nH]c5ccc(Cl)cc45)C3)sc2c1", "result": "2 µg/mL"}
{"molecule": "Clc1cc(Cl)c2nc(N3CCc4c([nH]c5ccc(Cl)cc45)C3)sc2c1", "result": "1 µg/mL"}
{"molecule": "NCCNCC1CN(c2nc3ccc(Cl)cc3s2)Cc2[nH]c3ccc(Cl)cc3c21 (racemic)", "result": "2 µg/mL"}
{"molecule": "Cl.Nc1cc(C(F)(F)F)c2nc(N3CCc4c([nH]c5ccc(Cl)cc45)C3)sc2c1", "result": "2 µg/mL"}
{"molecule": "CCn1c2c(c3cc(Cl)ccc31)CCN(c1nc3ccc(Cl)cc3s1)C2", "result": "> 64 µg/mL"}
{"molecule": "CN(C)CC1CN(c2nc3ccc(Cl)cc3s2)Cc2[nH]c3ccc(Cl)cc3c21 (racemic)", "result": "1 µg/mL"}
{"molecule": "FC(F)(F)c1cc(Br)cc2sc(N3CCc4c([nH]c5ccc(Cl)cc45)C3)nc12", "result": "0.5 µg/mL"}
{"molecule": "NCC1CN(c2nc3ccc(Cl)cc3s2)Cc2[nH]c3ccc(Cl)cc3c21 (racemic)", "result": "1 µg/mL"}
{"molecule": "Cl.NCCSCC1CN(c2nc3ccc(Cl)cc3s2)Cc2[nH]c3ccc(Cl)cc3c21 (racemic)", "result": "1 µg/mL"}
{"molecule": "COC(=O)C1CN(c2nc3ccc(Cl)cc3s2)Cc2[nH]c3ccc(Cl)cc3c21 (racemic)", "result": "1 µg/mL"}
